Where these numbers come from: PubChem BioAssay (NCI)

Test system: ACHN renal
assay text: NCI-60 one-dose screen, 48 h
recorded conditions: 10 µM
About 83,000 compounds went through this panel and 20% of them were active in at least one assay; those are over-represented in the sample as a whole. Calls of active or inactive are those of the source. The calls were made as follows: active = growth percent below 10; inactive = the rest. Starred links: 1 amine or outer side, 2 acyl side, 3 side chain; linkers in the order of their positions; H or OH if unused. Positions of bridges follow the written chain, without caps; N, C: chain ends. Non-standard residues stand in square brackets, D forms with d. Residues, ends and D or L forms follow the SMILES beside them. Chains are numbered I, II in the order given. Actinocin(9to1) = Cc1c2oc3c(C)ccc(C(=O)[*:1])c3nc-2c(C(=O)[*:2])c(N)c1=O; aThr = C[C@H](O)[C@H](N)C(=O)O; NMeV = CN[C@H](C(=O)O)C(C)C; Sar = CNCC(=O)O
Classes used: class 1 (active), class 0 (inactive)

compound | group label
Cc1cnc(/C=N\NC(N)=S)c2cccc(N)c12 | class 0
S=c1[nH]nc(Cc2ccccc2)c(=S)[nH]1 | class 0
CSc1ccc2c(c1)C(N1CCN(C)CC1)Cc1ccccc1S2 (stereo unspecified) | class 0
CN1CCN(c2ccc3nc(-c4ccc5nc(-c6ccc(O)cc6)[nH]c5c4)[nH]c3c2)CC1 | class 0
Cc1c2oc3c(C)ccc(C(=O)N[C@@H]4C(=O)N[C@H](C(C)C)C(=O)N5CCC[C@H]5C(=O)N(C)CC(=O)N(C)[C@@H](C(C)C)C(=O)O[C@H]4C)c3nc-2c(C(=O)N[C@@H]2C(=O)N[C@H](C(C)C)C(=O)N3CCC[C@H]3C(=O)N(C)CC(=O)N(C)[C@@H](C(C)C)C(=O)O[C@H]2C)c(N)c1=O (I: [aThr][dV]P[Sar][NMeV] / II: [aThr][dV]P[Sar][NMeV]; ester I:1-I:C, II:1-II:C; linker I:N-II:N via Actinocin(9to1)) | class 1
Nc1ccc2cc(Br)c3ccccc3c2c1 | class 0

* * *

growth values by entry
Test system: HS 578T breast
assay text: NCI-60 one-dose screen, 48 h (100 = growth as untreated, 0 = no growth, -100 = all killed)
recorded conditions: 10 µM
Compounds without any hit were thinned out: in the full panel of roughly 83,000, 20% have a hit.
experimental readout: growth (%)

compound | experimental readout | unit | result value
N#C/C(=C1C=C/C(=N\O)C(Cl)=C\1)c1ccccc1 | growth | % | 56.2
COc1cc(C(C)(C)C)cc(OC)c1C(O)(c1c(OC)cc(C(C)(C)C)cc1OC)c1c(OC)cc(C(C)(C)C)cc1OC | growth | % | -33.3
CSc1ccc2c(c1)C(N1CCN(C)CC1)Cc1ccccc1S2 (centres undefined) | growth | % | 39.8
O=C(/C(=C/c1ccccc1)CBr)c1ccccc1 | growth | % | 82.9

* * *

Test system: SK-MEL-2 melanoma
assay text: NCI-60 one-dose screen, 48 h (100 = growth as untreated, 0 = no growth, -100 = all killed)
recorded conditions: 10 µM
Compounds without any hit were thinned out: in the full panel of roughly 83,000, 20% have a hit. Starred links: 1 amine or outer side, 2 acyl side, 3 side chain; linkers in the order of their positions; H or OH if unused. Positions of bridges follow the written chain, without caps; N, C: chain ends. Non-standard residues stand in square brackets, D forms with d. Residues, ends and D or L forms follow the SMILES beside them. Chains are numbered I, II in the order given. Actinocin(9to1) = Cc1c2oc3c(C)ccc(C(=O)[*:1])c3nc-2c(C(=O)[*:2])c(N)c1=O; aThr = C[C@H](O)[C@H](N)C(=O)O; NMeV = CN[C@H](C(=O)O)C(C)C; Sar = CNCC(=O)O
growth values by entry

compound | tested system | growth, %
CCCCCCCCCCCCCCCCCN | SK-MEL-2 melanoma | 110
O=C(/C(=C/c1ccccc1)CBr)c1ccccc1 | SK-MEL-2 melanoma | 93.4
Cc1c2oc3c(C)ccc(C(=O)N[C@@H]4C(=O)N[C@H](C(C)C)C(=O)N5CCC[C@H]5C(=O)N(C)CC(=O)N(C)[C@@H](C(C)C)C(=O)O[C@H]4C)c3nc-2c(C(=O)N[C@@H]2C(=O)N[C@H](C(C)C)C(=O)N3CCC[C@H]3C(=O)N(C)CC(=O)N(C)[C@@H](C(C)C)C(=O)O[C@H]2C)c(N)c1=O (I: [aThr][dV]P[Sar][NMeV] / II: [aThr][dV]P[Sar][NMeV]; ester I:1-I:C, II:1-II:C; linker I:N-II:N via Actinocin(9to1)) | SK-MEL-2 melanoma | -53.1
Cc1cnc(/C=N\NC(N)=S)c2cccc(N)c12 | SK-MEL-2 melanoma | -6.16
BrC/C=C/C[P+](c1ccccc1)(c1ccccc1)c1ccccc1 | SK-MEL-2 melanoma | 78.7

* * *

Tested on: RXF 393 renal
assay text: NCI-60 one-dose screen, 48 h (100 = growth as untreated, 0 = no growth, -100 = all killed)
recorded conditions: 10 µM
About 83,000 compounds went through this panel and 20% of them were active in at least one assay; those are over-represented in the sample as a whole. Calls of active or inactive are those of the source. The calls were made as follows: active = growth percent below 10; inactive = the rest. Starred links: 1 amine or outer side, 2 acyl side, 3 side chain; linkers in the order of their positions; H or OH if unused. Positions of bridges follow the written chain, without caps; N, C: chain ends. Non-standard residues stand in square brackets, D forms with d. Residues, ends and D or L forms follow the SMILES beside them. Chains are numbered I, II in the order given. Actinocin(9to1) = Cc1c2oc3c(C)ccc(C(=O)[*:1])c3nc-2c(C(=O)[*:2])c(N)c1=O; aThr = C[C@H](O)[C@H](N)C(=O)O; NMeV = CN[C@H](C(=O)O)C(C)C; Sar = CNCC(=O)O

compound | growth
Cc1c2oc3c(C)ccc(C(=O)N[C@@H]4C(=O)N[C@H](C(C)C)C(=O)N5CCC[C@H]5C(=O)N(C)CC(=O)N(C)[C@@H](C(C)C)C(=O)O[C@H]4C)c3nc-2c(C(=O)N[C@@H]2C(=O)N[C@H](C(C)C)C(=O)N3CCC[C@H]3C(=O)N(C)CC(=O)N(C)[C@@H](C(C)C)C(=O)O[C@H]2C)c(N)c1=O (I: [aThr][dV]P[Sar][NMeV] / II: [aThr][dV]P[Sar][NMeV]; ester I:1-I:C, II:1-II:C; linker I:N-II:N via Actinocin(9to1)) | -45.9% (active)

* * *

System: NCI-H460 lung
assay text: NCI-60 one-dose screen, 48 h (100 = growth as untreated, 0 = no growth, -100 = all killed)
recorded conditions: 10 µM
About 83,000 compounds went through this panel and 20% of them were active in at least one assay; those are over-represented in the sample as a whole.
I'd appreciate it if you marked entries TRUE when growth is lower than 10% and FALSE when it is not.

molecule | group label
N#C/C(=C1C=C/C(=N\O)C(Cl)=C\1)c1ccccc1 | FALSE
BrC/C=C/C[P+](c1ccccc1)(c1ccccc1)c1ccccc1 | FALSE
Cc1cnc(/C=N\NC(N)=S)c2cccc(N)c12 | TRUE
Cc1cc(NCCCN(C)C)c2ccc3c(ccc4c(NCCCN(C)C)cc(C)nc43)c2n1 | TRUE
CCCCCCCCCCCCCCCCCN | FALSE
CSc1ccc2c(c1)C(N1CCN(C)CC1)Cc1ccccc1S2 (stereo unspecified) | FALSE

* * *

growth values by entry
Tested on: NCI-H23 lung
assay text: NCI-60 one-dose screen, 48 h (100 = growth as untreated, 0 = no growth, -100 = all killed)
recorded conditions: 10 µM
About 83,000 compounds went through this panel and 20% of them were active in at least one assay; those are over-represented in the sample as a whole. Starred links: 1 amine or outer side, 2 acyl side, 3 side chain; linkers in the order of their positions; H or OH if unused. Positions of bridges follow the written chain, without caps; N, C: chain ends. Non-standard residues stand in square brackets, D forms with d. Residues, ends and D or L forms follow the SMILES beside them. Chains are numbered I, II in the order given. Actinocin(9to1) = Cc1c2oc3c(C)ccc(C(=O)[*:1])c3nc-2c(C(=O)[*:2])c(N)c1=O; aThr = C[C@H](O)[C@H](N)C(=O)O; NMeV = CN[C@H](C(=O)O)C(C)C; Sar = CNCC(=O)O

compound | unit | growth
Nc1ccc2cc(Br)c3ccccc3c2c1 | % | 69.5
Cc1c2oc3c(C)ccc(C(=O)N[C@@H]4C(=O)N[C@H](C(C)C)C(=O)N5CCC[C@H]5C(=O)N(C)CC(=O)N(C)[C@@H](C(C)C)C(=O)O[C@H]4C)c3nc-2c(C(=O)N[C@@H]2C(=O)N[C@H](C(C)C)C(=O)N3CCC[C@H]3C(=O)N(C)CC(=O)N(C)[C@@H](C(C)C)C(=O)O[C@H]2C)c(N)c1=O (I: [aThr][dV]P[Sar][NMeV] / II: [aThr][dV]P[Sar][NMeV]; ester I:1-I:C, II:1-II:C; linker I:N-II:N via Actinocin(9to1)) | % | -50.9
CN(C)CCC(=O)c1c[nH]c2ccccc12 | % | 110
S=c1[nH]nc(Cc2ccccc2)c(=S)[nH]1 | % | 92.5
N#C/C(=C1C=C/C(=N\O)C(Cl)=C\1)c1ccccc1 | % | 82.8
